Would you kindly list activity change, negative = inhibition for each of these compounds?
Assay overview: growth inhibition of P. falciparum 3D7, dose response, 3D7 strain, red blood cells, SYBR Green, cherry-picked (AID 652047);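 as to activity change, negative = inhibition: 0% = untreated neutral control wells and -100% = mefloquine positive control wells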
Condition parameters: P. falciparum 3D7 in RBCs, SYBR Green DNA fluorescence; at 50 µM (top of the series)
# value in %; strip the unit string

Problem: # query: activity change, negative = inhibition of entry "O/N=C/c1ccccc1OCc1ccc(Cl)cc1"
Solution: -27.3

Problem: # query: activity change, negative = inhibition of entry "Clc1ccc(-c2n[nH]c3c2CCC3)cc1Cl"
Solution: 19.2

Problem: # query: activity change, negative = inhibition of entry "CCn1c(CNc2ccc(Cl)cc2)nnc1SCc1ccccc1"
Solution: -1.95

---

Test system: P. falciparum 3D7 in RBCs, SYBR Green DNA fluorescence
Assay overview: growth inhibition of P. falciparum 3D7, dose response, 3D7 strain, red blood cells, SYBR Green, cherry-picked (AID 652047)
Would you kindly list AC35 for each of these compounds?

Problem: # query: AC35 of entry "CCCCCCCn1c(=O)c(C(=O)OC)c(N)c2ccccc21"
Solution: 13.6 µM

Problem: # query: AC35 of entry "C=CCNC(=S)N1CCC(Cc2ccccc2)CC1"
Solution: 43.5 µM

Problem: # query: AC35 of entry "Cc1ccsc1/C=C/c1ccc2cccc(O)c2n1"
Solution: 14.2 µM

Problem: # query: AC35 of entry "[O-][n+]1cccc2c(Br)cc(Br)c(O)c21"
Solution: 7.13 µM

Problem: # query: AC35 of entry "Cc1nc(-c2ccccn2)nc(N(C)c2ccccc2)c1Cl"
Solution: 3.26 µM

Problem: # query: AC35 of entry "CC1=CC(=O)C=C(C)C1=NOS(=O)(=O)c1ccccc1"
Solution: 17.4 µM

Problem: # query: AC35 of entry "CC(C)(C)n1nc(Cc2cccc3ccccc23)c2c(N)ncnc21"
Solution: 25.7 µM

Problem: # query: AC35 of entry CCC(C)n1ncn(-c2ccc(N3CCN(c4ccc(OCC5COC(Cn6cncn6)(c6ccc(Cl)cc6Cl)O5)cc4)CC3)cc2)c1=O (stereo not given)
Solution: 4.24 µM

Problem: # query: AC35 of entry Cc1csc(NC(=O)C(C)Oc2ccc(Cl)cc2C)n1 (stereo not given)
Solution: 38.3 µM

Problem: # query: AC35 of entry "Clc1ccc(C2=NCCN2)cc1"
Solution: 5.64 µM

Problem: # query: AC35 of entry "CNc1ccc2oc(C[C@H]3O[C@@]4(CC[C@H]3C)O[C@H]([C@H](C)C(=O)c3ccc[nH]3)[C@H](C)C[C@H]4C)nc2c1C(=O)O"
Solution: 1.01 µM

Problem: # query: AC35 of entry "CCCn1nc(C(=O)N2CCN(S(=O)(=O)c3ccc(C)c(C)c3)CC2)c2ccccc2c1=O"
Solution: 11.7 µM

Problem: # query: AC35 of entry CCCC(C)Sc1nc2c([nH]1)c(=S)n(C)c(=O)n2C (stereo not given)
Solution: 4.74 µM

Problem: # query: AC35 of entry CC(C)C(=O)NC(c1cccc([N+](=O)[O-])c1)c1ccc2cccnc2c1O (stereo not given)
Solution: 1.01 µM

Problem: # query: AC35 of entry "Cc1cc(/C=C2\SC(=S)N(C)C2=O)c(C)n1-c1ccc(O)cc1"
Solution: 10.8 µM

Problem: # query: AC35 of entry "Cc1ccc(S(=O)(=O)Nc2ccc(O)c3cccnc23)cc1"
Solution: 7.02 µM

Problem: # query: AC35 of entry "CN(c1ccccc1)c1nc(N2CCCC2)nc(-n2ccnc2)n1"
Solution: 9.8 µM

Problem: # query: AC35 of entry "S=C(NCc1ccco1)Nc1ccc(Oc2ccc(Cl)cc2)cc1"
Solution: 24 µM

Problem: # query: AC35 of entry "CCCOc1ccc(S(=O)(=O)n2cc(F)c(=O)[nH]c2=O)cc1"
Solution: 30.4 µM

Problem: # query: AC35 of entry Cc1nn(CCC#N)c(N)c1C1(O)C(=O)Nc2c(Cl)cc(Cl)cc21 (stereo not given)
Solution: 16 µM

Problem: # query: AC35 of entry "O=c1c(O)c(-c2ccccc2)oc2ccccc12"
Solution: 31.1 µM

Problem: # query: AC35 of entry "C(=C1c2ccccc2-c2ccccc21)c1ccncc1"
Solution: 12.1 µM

Problem: # query: AC35 of entry "COc1cnc(-c2ccccn2)nc1Sc1ccc(C)cc1"
Solution: 1.73 µM

Problem: # query: AC35 of entry "O=CC1=C(c2ccccc2)Oc2ccccc2O1"
Solution: 8.24 µM

Problem: # query: AC35 of entry "Nc1cc2c3ccccc3ccc2c2ccccc12"
Solution: 1.01 µM

Problem: # query: AC35 of entry "CC(=O)C1=C(c2cccc([N+](=O)[O-])c2)N(C(C)=O)n2c(C)nnc2S1"
Solution: 0.836 µM

Problem: # query: AC35 of entry "Oc1ccc(/C=N/Nc2ccc(C(F)(F)F)cn2)c(O)c1"
Solution: 5.21 µM

Problem: # query: AC35 of entry "Clc1ccccc1C(c1ccccc1)(c1ccccc1)n1ccnc1"
Solution: 0.448 µM

Problem: # query: AC35 of entry "Oc1c(CN2CCCC2)cc(COCc2ccccc2)c2cccnc12"
Solution: 13.8 µM

Problem: # query: AC35 of entry "CC1(C)C=Cc2c(ccc3c2OC[C@@H](c2ccc(O)cc2O)C3)O1"
Solution: 17.8 µM

Problem: # query: AC35 of entry "COc1ccc2oc(=O)c(-c3csc(Nc4cccc(O)c4)n3)cc2c1"
Solution: 15.7 µM

Problem: # query: AC35 of entry "COc1ccc(C(=O)On2c(-c3ccc(Br)cc3)nc3ccccc3c2=O)cc1"
Solution: 5.71 µM

Problem: # query: AC35 of entry "O=C(Nc1cc(Oc2ccc(Cl)cc2)cc([N+](=O)[O-])c1)c1ccco1"
Solution: 6.1 µM

Problem: # query: AC35 of entry "COc1cccc(/C=N/NC(=O)c2nc(-c3ccccc3)cc(-c3ccccc3)n2)c1O"
Solution: 6.29 µM

Problem: # query: AC35 of entry CC1(C)C2CCC1(C)C(OC(=O)c1ccc(O)cc1)C2 (stereo not given)
Solution: 12.2 µM

Problem: # query: AC35 of entry "O=c1c2ccccc2c(-c2ccc(O)cc2)nn1-c1cccc(C(F)(F)F)c1"
Solution: 5.55 µM

Problem: # query: AC35 of entry "COc1cc2cnc(-c3ccccc3)c(C(=O)c3ccc(F)cc3)c2cc1OC"
Solution: 34.4 µM

Problem: # query: AC35 of entry "Cc1ccc(C)c(/C=C/C(=O)c2ccccc(=O)c2O)c1"
Solution: 7.91 µM

Problem: # query: AC35 of entry "CN(C)c1ccc(C=c2c3cc(O)ccc3n3c2cc(-c2ccccc2)[n+]3C)cc1"
Solution: 0.127 µM

Problem: # query: AC35 of entry Oc1c(C(Nc2cccc(C(F)(F)F)c2)c2ccncc2)ccc2cccnc12 (stereo not given)
Solution: 0.879 µM

Problem: # query: AC35 of entry "CCc1cc(SC#N)cc(C)c1NC(=O)CCl"
Solution: 7.77 µM

Problem: # query: AC35 of entry "Cc1cccc(Nc2nc(-c3ccc(O)cc3O)cs2)n1"
Solution: 20.3 µM

Problem: # query: AC35 of entry "O=C(Nc1nnc(SCc2ccc(F)cc2)s1)c1ccccn1"
Solution: 2.17 µM

Problem: # query: AC35 of entry "CN(C)c1ccc(C=c2c3ccccc3n3c2c2c([n+]3C)CCCC2)cc1"
Solution: 0.15 µM

Problem: # query: AC35 of entry "C=C(C)COc1ccc(-c2[nH]ncc2-c2ccc(Br)cc2)c(O)c1"
Solution: 3.55 µM

// provenance: PubChem BioAssay AID652047
